# target_of_assay: Opioid receptors; mu & delta (Rattus norvegicus) (UniProt P33533+P33535)
# Sequence (P33533 whole entry, looked up): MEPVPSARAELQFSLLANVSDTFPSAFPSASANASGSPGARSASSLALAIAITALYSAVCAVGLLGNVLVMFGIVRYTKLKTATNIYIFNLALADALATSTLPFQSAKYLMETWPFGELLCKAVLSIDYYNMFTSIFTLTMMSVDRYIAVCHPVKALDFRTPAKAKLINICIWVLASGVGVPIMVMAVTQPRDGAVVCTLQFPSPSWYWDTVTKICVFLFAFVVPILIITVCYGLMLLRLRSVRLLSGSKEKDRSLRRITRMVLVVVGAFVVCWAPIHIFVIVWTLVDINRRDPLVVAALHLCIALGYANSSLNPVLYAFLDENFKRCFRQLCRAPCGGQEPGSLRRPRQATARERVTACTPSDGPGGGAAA
# Sequence (P33535 whole entry, looked up): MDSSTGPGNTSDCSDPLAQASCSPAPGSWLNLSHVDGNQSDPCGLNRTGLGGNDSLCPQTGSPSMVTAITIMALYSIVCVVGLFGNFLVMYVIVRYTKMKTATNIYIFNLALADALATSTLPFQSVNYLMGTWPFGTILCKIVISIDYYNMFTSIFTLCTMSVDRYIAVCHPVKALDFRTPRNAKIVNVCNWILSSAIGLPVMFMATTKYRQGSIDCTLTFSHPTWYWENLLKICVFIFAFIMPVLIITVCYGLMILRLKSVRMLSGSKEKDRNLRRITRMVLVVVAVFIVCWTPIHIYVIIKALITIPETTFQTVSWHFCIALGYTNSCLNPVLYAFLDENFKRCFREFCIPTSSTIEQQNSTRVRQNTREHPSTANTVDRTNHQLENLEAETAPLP
# assay_summary: Relative binding affinity for mu and delta opioid receptors
# Assay type: protein assay
Starred links: 1 amine or outer side, 2 acyl side, 3 side chain; linkers in the order of their positions; H or OH if unused. Non-standard residues stand in square brackets, D forms with d. Residues, ends and D or L forms follow the SMILES beside them. X1 = CSCC[C@H](CN([C@@H](Cc1ccccc1)C(=O)[*:2])[*:1])N[*:3]; Tle = CC(C)(C)[C@H](N)C(=O)O; NBuGly = CCCCNCC(=O)O
# note: boundary value 80 maps to NO; Ki ratio below it maps to YES

Study these solved cases before continuing.
# compound, discrete_label
data = [
    ("CCCCN(CC(=O)N[C@@H](CC(=O)O)C(N)=O)C(=O)[C@H](CC(C)C)NC(=O)[C@H](Cc1c[nH]cn1)NC(=O)[C@H](Cc1ccccc1)NC[C@@H](CCSC)NC(=O)[C@@H](N)Cc1ccc(O)cc1 (H-[X1](Tyr)HL[NBuGly]D-NH2)", "YES"),
    ("CCCCN(CC(=O)N[C@@H](CC(=O)O)C(N)=O)C(=O)[C@@H](NC(=O)[C@H](Cc1c[nH]cn1)NC(=O)[C@H](Cc1ccccc1)NC[C@@H](CCSC)NC(=O)[C@@H](N)Cc1ccc(O)cc1)C(C)(C)C (H-[X1](Tyr)H[Tle][NBuGly]D-NH2)", "YES"),
    ("CCCCN(CC(=O)N[C@@H](CC(=O)O)C(N)=O)C(=O)[C@@H](NC(=O)[C@H](Cc1c[nH]cn1)NC(=O)[C@H](Cc1ccccc1)NC(=O)[C@@H](CCSC)NC(=O)[C@@H](N)Cc1ccc(O)cc1)C(C)(C)C", "YES"),
    ("CC[C@H](C)N(CC(=O)N[C@@H](CC(=O)O)C(N)=O)C(=O)[C@H](CC(C)C)NC(=O)[C@H](Cc1c[nH]cn1)NC(=O)[C@H](Cc1ccccc1)NC(=O)[C@@H](CCSC)NC(=O)[C@@H](N)Cc1ccc(O)cc1 (stereo in doubt; 6b)", "NO"),
    ("CC[C@H](C)N(CC(=O)N[C@@H](CC(=O)O)C(N)=O)C(=O)[C@H](CC(C)C)NC(=O)[C@H](Cc1c[nH]cn1)NC(=O)[C@H](Cc1ccccc1)NC(=O)[C@@H](CCSC)NC(=O)[C@@H](N)Cc1ccc(O)cc1 (stereo in doubt; 6a)", "NO"),
    ("CCCCN(CC(=O)N[C@@H](CC(=O)O)C(N)=O)C(=O)[C@H](CC(C)C)NC(=O)[C@H](Cc1c[nH]cn1)NC(=O)[C@H](Cc1ccccc1)NC(=O)[C@@H](CCSC)NC(=O)[C@@H](N)Cc1ccc(O)cc1", "NO"),
    ("CSCC[C@@H](NC(=O)[C@@H](N)Cc1ccc(O)cc1)C(=O)N[C@@H](Cc1ccccc1)C(=O)N[C@@H](Cc1c[nH]cn1)C(=O)N[C@@H](CC(C)C)C(=O)N(CC(=O)N[C@@H](CC(=O)O)C(N)=O)CC(C)C", "YES"),
    ("CSCC[C@H](NC(=O)[C@@H](NC(=O)[C@H](Cc1c[nH]cn1)NC(=O)[C@H](Cc1ccccc1)NC(=O)[C@@H](CCSC)NC(=O)[C@@H](N)Cc1ccc(O)cc1)C(C)(C)C)C(=O)N[C@@H](CC(=O)O)C(N)=O", "YES"),
]

Consider the additional compound presented here.
Task item: Please state whether Ki ratio is below 80 for `CSCC[C@@H](NC(=O)[C@@H](N)Cc1ccc(O)cc1)C(=O)N[C@@H](Cc1ccccc1)C(=O)N[C@@H](Cc1c[nH]cn1)C(=O)N[C@@H](CC(C)C)C(=O)N[C@H](C(=O)N[C@@H](CC(=O)O)C(N)=O)C(C)(C)C`
Reply: NO
